Every entry's value here was drawn from patent US20100260765A1.

molecular target: human KDR (human, UniProt P35968 20-1356); assay: cell-based or functional assay
Sequence (P35968 20-1356): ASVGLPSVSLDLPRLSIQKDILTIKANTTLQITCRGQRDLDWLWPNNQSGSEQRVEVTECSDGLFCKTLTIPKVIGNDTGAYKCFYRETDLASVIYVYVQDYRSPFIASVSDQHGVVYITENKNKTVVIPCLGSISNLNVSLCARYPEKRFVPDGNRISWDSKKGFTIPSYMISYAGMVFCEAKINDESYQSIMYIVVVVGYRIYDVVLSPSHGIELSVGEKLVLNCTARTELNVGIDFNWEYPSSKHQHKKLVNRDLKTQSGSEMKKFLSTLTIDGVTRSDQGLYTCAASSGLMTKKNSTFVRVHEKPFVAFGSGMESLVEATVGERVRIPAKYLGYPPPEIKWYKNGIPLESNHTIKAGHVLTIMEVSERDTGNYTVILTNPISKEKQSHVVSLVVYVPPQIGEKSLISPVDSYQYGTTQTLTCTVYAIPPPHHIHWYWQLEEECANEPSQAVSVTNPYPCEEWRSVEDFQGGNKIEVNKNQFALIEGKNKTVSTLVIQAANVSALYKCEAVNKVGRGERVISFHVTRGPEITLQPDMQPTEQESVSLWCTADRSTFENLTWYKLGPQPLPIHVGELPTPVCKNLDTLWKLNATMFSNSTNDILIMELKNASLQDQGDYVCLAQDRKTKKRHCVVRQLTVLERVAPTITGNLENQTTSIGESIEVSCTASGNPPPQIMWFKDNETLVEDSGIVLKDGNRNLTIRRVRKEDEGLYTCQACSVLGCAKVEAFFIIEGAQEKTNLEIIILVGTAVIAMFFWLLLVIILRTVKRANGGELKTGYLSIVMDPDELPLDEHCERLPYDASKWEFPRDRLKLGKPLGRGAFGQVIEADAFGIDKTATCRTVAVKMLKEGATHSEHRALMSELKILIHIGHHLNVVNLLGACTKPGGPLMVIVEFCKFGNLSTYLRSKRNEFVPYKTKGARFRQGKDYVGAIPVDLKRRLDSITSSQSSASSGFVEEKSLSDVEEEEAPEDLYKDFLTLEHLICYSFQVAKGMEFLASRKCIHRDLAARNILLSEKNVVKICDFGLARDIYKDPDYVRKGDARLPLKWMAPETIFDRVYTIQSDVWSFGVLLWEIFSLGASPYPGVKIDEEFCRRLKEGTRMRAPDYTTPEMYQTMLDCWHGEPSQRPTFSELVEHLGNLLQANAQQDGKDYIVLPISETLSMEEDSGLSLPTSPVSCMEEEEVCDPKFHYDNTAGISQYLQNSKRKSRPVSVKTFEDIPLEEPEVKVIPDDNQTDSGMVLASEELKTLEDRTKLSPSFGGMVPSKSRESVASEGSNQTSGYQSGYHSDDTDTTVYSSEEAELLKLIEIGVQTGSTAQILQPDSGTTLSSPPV
MEASURED_QUANTITY: HUVEC survival, Maximum Inhibition at 50 nM (% Inhibition), Average (%)
Report as a plain number; the unit % is understood.

Worked cases, HUVEC survival, Maximum Inhibition at 50 nM (% Inhibition), Average given:
# BINDER, VALUE_OBSERVED
records = [
    ("27A3 (antibody, V domains shown, Fully human monoclonal antibody from a XenoMouse hybridoma (IgG2 or IgG4 strain), purified) VH: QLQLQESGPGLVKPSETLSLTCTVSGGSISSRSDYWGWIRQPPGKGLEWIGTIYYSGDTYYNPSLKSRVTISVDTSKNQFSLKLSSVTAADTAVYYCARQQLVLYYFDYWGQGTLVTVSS VL: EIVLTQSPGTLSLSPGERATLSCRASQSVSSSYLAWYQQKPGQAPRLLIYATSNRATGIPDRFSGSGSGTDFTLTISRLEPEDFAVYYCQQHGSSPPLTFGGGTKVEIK", 95),
    ("33B1 (antibody, V domains shown, Fully human monoclonal antibody from a XenoMouse hybridoma (IgG2 or IgG4 strain), purified) VH: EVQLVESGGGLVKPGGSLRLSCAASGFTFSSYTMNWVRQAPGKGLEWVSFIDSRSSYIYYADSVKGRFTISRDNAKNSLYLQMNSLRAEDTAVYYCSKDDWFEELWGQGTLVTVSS VL: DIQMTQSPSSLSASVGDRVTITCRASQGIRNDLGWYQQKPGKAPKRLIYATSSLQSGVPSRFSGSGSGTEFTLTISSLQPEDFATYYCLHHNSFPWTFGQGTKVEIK", 57),
    ("32F4 (antibody, V domains shown, Fully human monoclonal antibody from a XenoMouse hybridoma (IgG2 or IgG4 strain), purified) VH: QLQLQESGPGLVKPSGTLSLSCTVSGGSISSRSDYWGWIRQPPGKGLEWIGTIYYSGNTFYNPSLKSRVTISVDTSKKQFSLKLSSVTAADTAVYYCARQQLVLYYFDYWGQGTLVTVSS VL: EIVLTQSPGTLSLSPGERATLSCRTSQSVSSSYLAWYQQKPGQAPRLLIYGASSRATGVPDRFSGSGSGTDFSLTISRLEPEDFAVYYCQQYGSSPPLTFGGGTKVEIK", 92),
    ("22B8 (antibody, V domains shown, Fully human monoclonal antibody from a XenoMouse hybridoma (IgG2 or IgG4 strain), purified) VH: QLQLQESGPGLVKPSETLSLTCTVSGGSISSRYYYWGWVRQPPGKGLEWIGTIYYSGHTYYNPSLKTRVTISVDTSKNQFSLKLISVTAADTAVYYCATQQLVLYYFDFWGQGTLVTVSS VL: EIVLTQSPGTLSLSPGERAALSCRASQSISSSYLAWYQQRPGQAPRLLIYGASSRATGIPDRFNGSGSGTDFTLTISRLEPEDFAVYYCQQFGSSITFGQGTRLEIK", 87),
]

Exercise: Please give the measured HUVEC survival, Maximum Inhibition at 50 nM (% Inhibition), Average for this binder: 33E1 (antibody, V domains shown, Fully human monoclonal antibody from a XenoMouse hybridoma (IgG2 or IgG4 strain), purified) VH: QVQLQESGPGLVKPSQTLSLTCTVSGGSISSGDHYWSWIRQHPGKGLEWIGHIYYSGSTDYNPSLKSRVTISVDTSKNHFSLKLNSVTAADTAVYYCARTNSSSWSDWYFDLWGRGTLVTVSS VL: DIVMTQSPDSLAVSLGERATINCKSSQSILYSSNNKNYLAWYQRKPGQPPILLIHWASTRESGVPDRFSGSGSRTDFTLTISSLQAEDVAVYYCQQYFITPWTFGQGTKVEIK
Solution: 103

Exercise: GET /values?readout=HUVEC survival, Maximum Inhibition at 50 nM (% Inhibition), Average&item= 24B3 (antibody, V domains shown, Fully human monoclonal antibody from a XenoMouse hybridoma (IgG2 or IgG4 strain), purified) VH: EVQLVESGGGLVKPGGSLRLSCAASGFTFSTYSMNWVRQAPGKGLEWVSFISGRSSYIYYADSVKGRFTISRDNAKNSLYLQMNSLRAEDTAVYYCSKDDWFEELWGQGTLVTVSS VL: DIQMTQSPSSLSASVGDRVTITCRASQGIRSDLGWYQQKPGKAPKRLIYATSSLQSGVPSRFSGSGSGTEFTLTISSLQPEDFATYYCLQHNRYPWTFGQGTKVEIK
Solution: 90
